# Target of assay: HIV-1 Env of isolate MGRM-D-029 (subtype D) (HIV-1)
# Assay comment: cell-based or functional assay
Metric: IC50 (neutralization)

{"Binder": "PGT-131 (antibody, V domains shown) VH: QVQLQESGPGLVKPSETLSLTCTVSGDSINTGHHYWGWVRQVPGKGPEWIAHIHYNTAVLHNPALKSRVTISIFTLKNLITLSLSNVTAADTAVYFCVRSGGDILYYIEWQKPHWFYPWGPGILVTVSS VL: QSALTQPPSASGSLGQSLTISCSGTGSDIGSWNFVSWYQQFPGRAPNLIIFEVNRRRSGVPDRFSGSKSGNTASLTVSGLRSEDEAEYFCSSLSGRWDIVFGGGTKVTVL", "IC50 (neutralization)": "> 50 µg/mL"}

Would you kindly share the measured IC50 (neutralization) for PGT-130 (antibody, V domains shown) VH: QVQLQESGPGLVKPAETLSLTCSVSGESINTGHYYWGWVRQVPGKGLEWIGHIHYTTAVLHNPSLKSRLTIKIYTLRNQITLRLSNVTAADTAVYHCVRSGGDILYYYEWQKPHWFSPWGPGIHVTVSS VL: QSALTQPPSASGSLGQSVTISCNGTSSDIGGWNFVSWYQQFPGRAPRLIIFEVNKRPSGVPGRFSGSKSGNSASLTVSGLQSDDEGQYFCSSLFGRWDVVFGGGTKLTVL ? > 50 µg/mL

From: patent US20160264649A1
